Source: the Immune Epitope Database (IEDB)

- experimental_target: HLA-A*31:01
- assay_summary: IEDB peptide-MHC binding, purified MHC/competitive/fluorescence; filed as Kd, often an IC50 or EC50 that approximates it; bounds were set here for any values at or beyond the usual limits of such assays
- condition_parameters: source organism: Influenza A virus H3N2
pKd: −log10 of the molar value.
measure_name: pKd

> print(dat)
   residue.sequence  measure.name  measured.result
1         FSFGGFTFK           pKd           ≥ 9.00

====

- experimental_target: HLA-A*02:11
- assay_summary: IEDB peptide-MHC binding, purified MHC/competitive/fluorescence; filed as Kd, often an IC50 or EC50 that approximates it; bounds were set here for any values at or beyond the usual limits of such assays
- condition_parameters: source organism: Influenza A virus (A/red knot/Delaware/2561/1987(H10N5))
measure_name: Kd

> print(dat)
   residue.sequence  measured.result
1         VMTDGPANK           199 nM
